# target: EGFR (D770_N771insNPG) (Homo sapiens, UniProt P00533, INS770NPG)
# Sequence (P00533 with tags, fused parts or gaps INS770NPG limits assumed): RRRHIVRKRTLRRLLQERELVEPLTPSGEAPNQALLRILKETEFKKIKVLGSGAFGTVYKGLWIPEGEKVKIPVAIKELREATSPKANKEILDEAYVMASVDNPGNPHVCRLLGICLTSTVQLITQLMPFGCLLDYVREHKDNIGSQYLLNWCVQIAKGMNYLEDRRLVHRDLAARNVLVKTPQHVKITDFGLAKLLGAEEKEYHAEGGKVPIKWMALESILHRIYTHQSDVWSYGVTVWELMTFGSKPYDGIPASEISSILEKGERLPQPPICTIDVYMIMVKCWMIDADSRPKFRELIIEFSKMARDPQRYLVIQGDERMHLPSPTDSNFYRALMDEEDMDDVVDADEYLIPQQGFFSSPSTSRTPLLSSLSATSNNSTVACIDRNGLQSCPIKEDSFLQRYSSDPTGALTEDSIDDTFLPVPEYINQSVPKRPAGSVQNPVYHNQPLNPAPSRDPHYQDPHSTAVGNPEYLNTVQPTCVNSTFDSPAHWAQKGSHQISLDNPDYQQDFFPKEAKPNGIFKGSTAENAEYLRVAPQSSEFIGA
# experimental.details: HotSpot radiometric kinase assay, inhibition of EGFR (D770_N771insNPG) mutant
# condition.notes: 33P ATP, room temperature, 120 m
pIC50: −log10 of the molar value.
property: pIC50

Examples with their reported pIC50 follow.
INSERT INTO results (compound, observed_result) VALUES
  ('Cc1nn(C)c2c1-c1cc3c(n[nH]c3cn1)/C=C/c1c(OCC#N)nn(CCO)c1CN1CCC[C@@H]1C(C)O2 (single isomer, unassigned) [Ex. 50]', 9.68),
  ('Cc1nn(C)c2c1-c1cc3c(n[nH]c3cn1)/C=C/c1c(C#N)nn([C@@H](C)CO)c1CN(C)C[C@H](C)O2 [Ex. 48]', 9.64),
  ('Cc1nn([C@@H](C)CO)c2c1/C=C/c1n[nH]c3cnc(cc13)-c1c(C)nn(C)c1O[C@@H](C)CN(C)C2 [Ex. 46]', 9.44);

P = CC(C)Oc1nn(CCO)c2c1/C=C/c1n[nH]c3cnc(cc13)-c1cnn(C)c1O[C@H](C)CN(C(C)C)C2 [Ex. 3]
Q = CCOc1nn(CCO)c2c1/C=C/c1n[nH]c3c(C)nc(cc13)-c1cnn(C)c1O[C@@H](C)CN(CC)C2 [Ex. 28]
R = Cc1nn(C)c2c1-c1cc3c(n[nH]c3cn1)/C=C/c1c(OCC#N)nn(CCO)c1CN(C)C[C@@H](C)O2 [Ex. 42]
S = CCOc1nn(CCO)c2c1/C=C/c1n[nH]c3cnc(cc13)-c1c(C)nn(C)c1OC[C@@H](C)N(CC)C2 [Ex. 18]
T = CCOc1nn([C@@H](C)CO)c2c1/C=C/c1n[nH]c3cnc(cc13)-c1cnn(C)c1O[C@@H](C)CN(C)C2 [Ex. 19]
IN: Hi! Can you put these in order of pIC50, lowest number first? Use the labels to give the ranking in the order requested.
OUT: P, Q, S, R, T

A = CCOc1nn(CCO)c2c1/C=C/c1n[nH]c3cnc(cc13)-c1c(C)nn(C)c1OC[C@H]1CCCN1C2 [Ex. 39]
B = Cc1nn(CCO)c2c1/C=C/c1n[nH]c3cnc(cc13)-c1c(C)nn(C)c1O[C@@H](C)CN(C(C)C)C2 [Ex. 21]
IN: Compare the recorded pIC50 of A and B ; state which is larger. Indicate your choice by writing its label.
OUT: B

a = CCOc1nn(CCO)c2c1/C=C/c1n[nH]c3cnc(cc13)-c1c(C)nn(C)c1OC[C@H](C)N(CC)C2 [Ex. 16]
b = Cc1nn(CCO)c2c1/C=C/c1n[nH]c3cnc(cc13)-c1c(C)nn(C)c1O[C@@H](C)CN(C)C2 [Ex. 41]
c = CCN1Cc2c(c(OCC#N)nn2CCO)/C=C/c2n[nH]c3cnc(cc23)-c2c(C)nn(C)c2O[C@@H](C)C1 [Ex. 23]
IN: Hi! Can you put these in order of pIC50, lowest number first? Use the labels to give the ranking in the order requested.
OUT: a, c, b

* * *

# target: pEGFR, NCI-H1975 cells (L858R/T790M EGFR) (Homo sapiens, UniProt P00533, L858R/T790M)
# Construct: pEGFR (Tyr1068) TR-FRET
# Sequence (P00533 25-1210 T790M/L858R): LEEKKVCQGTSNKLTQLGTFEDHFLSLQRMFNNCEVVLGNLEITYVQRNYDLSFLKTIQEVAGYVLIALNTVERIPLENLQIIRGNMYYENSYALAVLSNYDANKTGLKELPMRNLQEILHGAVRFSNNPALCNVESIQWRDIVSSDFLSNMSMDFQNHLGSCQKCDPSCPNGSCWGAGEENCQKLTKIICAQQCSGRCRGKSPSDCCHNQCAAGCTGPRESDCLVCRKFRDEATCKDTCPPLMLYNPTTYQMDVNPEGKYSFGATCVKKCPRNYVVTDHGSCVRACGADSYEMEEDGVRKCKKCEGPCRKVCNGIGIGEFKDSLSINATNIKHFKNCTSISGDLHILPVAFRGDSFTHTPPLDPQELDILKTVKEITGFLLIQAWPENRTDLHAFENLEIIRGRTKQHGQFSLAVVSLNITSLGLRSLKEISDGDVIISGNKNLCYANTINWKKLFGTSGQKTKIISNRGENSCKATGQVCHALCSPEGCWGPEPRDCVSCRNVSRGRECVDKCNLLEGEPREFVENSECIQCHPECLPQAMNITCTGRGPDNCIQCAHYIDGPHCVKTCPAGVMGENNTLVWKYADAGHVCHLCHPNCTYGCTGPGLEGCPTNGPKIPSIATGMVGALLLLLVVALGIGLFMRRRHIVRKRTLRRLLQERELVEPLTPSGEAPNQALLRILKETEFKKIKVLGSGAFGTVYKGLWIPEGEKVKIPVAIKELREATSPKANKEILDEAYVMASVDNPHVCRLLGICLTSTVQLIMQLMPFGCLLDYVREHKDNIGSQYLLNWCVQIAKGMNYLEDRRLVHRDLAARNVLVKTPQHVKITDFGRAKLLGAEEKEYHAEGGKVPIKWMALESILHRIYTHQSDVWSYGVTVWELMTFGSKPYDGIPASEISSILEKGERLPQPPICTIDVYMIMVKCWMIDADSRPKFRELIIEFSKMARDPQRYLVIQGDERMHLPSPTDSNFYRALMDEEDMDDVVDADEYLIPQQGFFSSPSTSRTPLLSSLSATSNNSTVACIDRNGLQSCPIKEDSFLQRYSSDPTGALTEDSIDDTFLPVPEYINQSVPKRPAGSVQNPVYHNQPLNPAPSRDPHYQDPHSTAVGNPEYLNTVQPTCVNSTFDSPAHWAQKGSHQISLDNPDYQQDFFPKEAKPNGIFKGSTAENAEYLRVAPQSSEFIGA
# experimental.details: Cellular EGFR phosphorylation assay (LANCE Ultra TR-FRET) in NCI-H1975 cells
# Assay type: cell-based
# condition.notes: 4 hours at 37° C., read-out: H1975 pEGFR IC50
property: IC50 (nM)

Examples with their reported IC50 follow.
INSERT INTO measurements (molecule, property, observed_result) VALUES
  ('Cc1nn(C)c2c1/C=C/c1n[nH]c3c(C)nc(cc13)-c1c(C)nn(C)c1O[C@@H](C)CN(C)C2 [Ex. 103]', 'IC50', 3.44),
  ('CCOc1nn([C@@H](C)CO)c2c1/C=C/c1n[nH]c3c(C)nc(cc13)-c1cnn(C)c1O[C@@H](C)CN(C)C2 [Ex. 45]', 'IC50', 1.24),
  ('CCOc1nn([C@@H](C)CO)c2c1/C=C/c1n[nH]c3cnc(cc13)-c1c(C)nn(C)c1O[C@H](C)CN(C)C2 [Ex. 35]', 'IC50', 1.25),
  ('CCOc1nn([C@@H](C)CO)c2c1/C=C/c1n[nH]c3cnc(cc13)-c1c(C)nn(C)c1O[C@@H](C)[C@H]1CCCN1C2 [Ex. 56]', 'IC50', 1.26);

A = CCc1nn(CCO)c2c1/C=C/c1n[nH]c3cnc(cc13)-c1c(C)nn(C)c1O[C@@H](C)CN(CC)C2 [Ex. 62]
B = CCOc1nn(CCO)c2c1/C=C/c1n[nH]c3c(C)nc(cc13)-c1cnn(C)c1O[C@@H](C)CN(C)C2 [Ex. 29]
C = CCOc1nn(CCO)c2c1/C=C/c1n[nH]c3c(C)nc(cc13)-c1cnn(C)c1O[C@@H](C)CN(CC)C2 [Ex. 28]
IN: Hi! Can you put these in order of IC50, lowest number first? Use the labels to give the ranking in the order requested.
OUT: B, A, C
(B: 0.93 nM, A: 1.54 nM, C: 3 nM)

* * *

# System: BaF3 cells with engineered EGFR d746-750/T790M
# experimental.details: 3-Day CellTiter Glo (CTG) cell proliferation assay, BaF3 EGFR d746-750/T790M
# Assay type: cell-based
# condition.notes: Mus musculus; BaF3 EGFR d746-750/T790M cells, 3-day CTG proliferation, 72 hours
property: IC50 (nM)

A = CCOc1nn([C@@H](C)CO)c2c1/C=C/c1n[nH]c3c(C)nc(cc13)-c1c(C)nn(C)c1O[C@H](C)CN(C)C2 [Ex. 98]
B = CCOc1nn(CCO)c2c1/C=C/c1n[nH]c3c(C)nc(cc13)-c1cnn(C)c1O[C@H](C)CN(C)C2 [Ex. 38]
IN: Compare the recorded IC50 of A and B ; state which is larger. Indicate your choice by writing its label.
OUT: B

a = CCN1Cc2c(c(OCC#N)nn2CCO)/C=C/c2n[nH]c3cnc(cc23)-c2c(C)nn(C)c2O[C@@H](C)C1 [Ex. 23]
b = CCOc1nn([C@@H](C)CO)c2c1/C=C/c1n[nH]c3cnc(cc13)-c1c(C)nn(C)c1O[C@H](C)CN(C)C2 [Ex. 35]
c = CCOc1nn(CCO)c2c1/C=C/c1n[nH]c3cnc(cc13)-c1c(C)nn(C)c1O[C@@H](C)CN(C)C2 [Ex. 44]
d = CCN1Cc2c(c(OC(C)C)nn2CCO)/C=C/c2n[nH]c3cnc(cc23)-c2cnn(C)c2O[C@H](C)C1 [Ex. 10]
IN: Given 4 compounds, produce a descending ranking by IC50. Use the labels to give the ranking in the order requested.
OUT: a, c, d, b
(a: 3.77 nM, c: 1.18 nM, d: 0.69 nM, b: 0.46 nM)

1 = CCOc1nn(CCO)c2c1/C=C/c1n[nH]c3cnc(cc13)-c1c(C)nn(C)c1O[C@@H](C)CN(C1CC1)C2 [Ex. 113]
2 = CCOc1nn([C@@H](C)CO)c2c1/C=C/c1n[nH]c3c(C)nc(cc13)-c1c(C)nn(C)c1O[C@@H](C)CN(C)C2 [Ex. 54]
IN: // compare measured IC50 between 1 and 2 ; output the lower one Indicate your choice by writing its label.
OUT: 2
(2: 0.55 nM, 1: 1.18 nM)
